Attribution: PubChem BioAssay AID1117361

# Target Or Test System: Protein Tat (Human immunodeficiency virus type 1 group M subtype B (isolate HXB2))
# Experimental Details: inhibitors of Tat binding to TAR RNA, dose response, counter-screen for Vif-APOBEC3G degradation inhibitor project, biochemical, fluorescence polarization, FAM-labeled TAR RNA (AID 1117361)
Measured Endpoint: pIC50
pIC50 here is simply -log10 of the concentration when that concentration is written in mol/L.

| Compound | Target Or Test System | pIC50 |
| --- | --- | --- |
| O=C(O)c1ccc(COc2c(F)c(F)c(F)c(F)c2F)o1 | Protein Tat (Human immunodeficiency virus type 1 group M subtype B (isolate HXB2)) | 4.04 |
| CN(C)[C@@H]1C(=O)C(C(=O)NCN2CCCC2)=C(O)[C@@]2(O)C(=O)C3=C(O)c4c(O)cccc4[C@@](C)(O)C3CC12 (stereo not given in full) | Protein Tat (Human immunodeficiency virus type 1 group M subtype B (isolate HXB2)) | 5.61 |

### Prompt Request the reported pIC50 associated with CC(C)N1C(=O)CC(Nc2ccc(N3CCOCC3)cc2)C1=O (stereo not given)
### Response 4.80

### Prompt Entry O=C(O)c1ccc(-n2cccc2/C=C2/NC(=O)N(c3ccccc3)C2=O)cc1 : reported pIC50 = ?
### Response 4.81

---

# Target Or Test System: Protein Tat (Human immunodeficiency virus type 1 group M subtype B (isolate HXB2))
# Experimental Details: inhibitors of Tat binding to TAR RNA, dose response, counter-screen for Vif-APOBEC3G degradation inhibitor project, biochemical, fluorescence polarization, FAM-labeled TAR RNA (AID 1117361)
Entries and their measured IC50 follow.

Field: example entries. Status: answers known.
| Compound | IC50 |
| --- | --- |
| CSc1nnc(-c2ccco2)c(-c2ccco2)n1 | 6.07 µM |
| CN(C)c1ccc(Cc2cc3c(O)ccc(O)c3cc(Cc3ccc(N(C)C)cc3)c2=O)cc1 | 85.4 µM |
| CCn1cc(CNC(=O)c2ccc(Cl)c([N+](=O)[O-])c2)c(C)n1 | 43 µM |

### Prompt Name the reported IC50 value associated with the compound CC(=O)Nc1ccc(S(=O)(=O)Nc2nc3ccccc3nc2Nc2ccc(N)cc2)cc1
### Response 43.3 µM

### Prompt I am curious: what IC50 value has been reported for Cc1onc(-c2ccccc2Cl)c1C(=O)NCc1ccco1 ?
### Response 6.65 µM

### Prompt Which IC50 is listed for Cc1cccc(N/N=C/c2ccc(O)c(O)c2O)c1 ?
### Response 36 µM

### Prompt Item O=C(O)CSc1c2c(nc3cc(C(=O)Nc4cccc(C(F)(F)F)c4)ccc13)CCC2 has what recorded IC50?
### Response 56.2 µM

### Prompt Name the reported IC50 value associated with the compound NC(=O)c1cc(N)ccc1N1CCCC1
### Response 2.17 µM

### Prompt What IC50 value was documented for this compound, CC(=O)c1ccc2c(c1)C1C=CCC1C(c1ccncc1)N2 (stereo unspecified) ?
### Response 36.6 µM

### Prompt Returns the measured IC50 for the input compound. Input: COc1cc(/C=C2/C(=O)c3cccc([N+](=O)[O-])c3C2=O)c(Br)cc1O
### Response 96.5 µM

### Prompt For the compound O=C(O)c1[nH]c2ccc(Cl)cc2c1CC(=O)N1CCN(C(=O)c2ccco2)CC1 , what IC50 is on record?
### Response 69.5 µM

---

# Target Or Test System: Protein Tat (Human immunodeficiency virus type 1 group M subtype B (isolate HXB2)) (UniProt P04608)
# Sequence (P04608 whole entry, looked up): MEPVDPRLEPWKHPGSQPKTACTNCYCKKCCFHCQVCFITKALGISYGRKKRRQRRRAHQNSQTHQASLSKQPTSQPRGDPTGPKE
# Experimental Details: inhibitors of Tat binding to TAR RNA, dose response, counter-screen for Vif-APOBEC3G degradation inhibitor project, biochemical, fluorescence polarization, FAM-labeled TAR RNA (AID 1117361)
Measured Endpoint: IC50

Look over these answered cases.
| Compound | Measured Endpoint | Recorded Measurement |
| --- | --- | --- |
| O=C(NCc1ccccn1)c1coc(=O)c(Br)c1 | IC50 | 88.3 µM |
| CCOC(=O)c1cnn2c(N)c(C#N)nnc12 | IC50 | 45.7 µM |
| O=C1CCCC/C1=C/Nc1ccc2c(c1)OCO2 | IC50 | 41.3 µM |
| COC(=O)/C(=N/Nc1ccccc1C)N1CCCc2ccccc21 | IC50 | 29.2 µM |
| Cc1ccc(N/N=C/c2c(C)c(C#N)c(=O)n(C)c2O)cc1C | IC50 | 11.9 µM |
| Cc1ccc(C(=O)N/N=C\c2cc(Br)c(Br)o2)cn1 | IC50 | 2.34 µM |
| O=C1c2cccnc2C(Nc2ccccc2)N1Cc1ccco1 (stereo not drawn) | IC50 | 79.2 µM |
| COc1cc(NC(=O)CS(=O)(=O)c2ccc(C)cc2)cc(OC)c1OC | IC50 | 1.42 µM |
| Cc1cc(C)c([N+](=O)[O-])cc1-c1ccc(/C=N/c2c(-c3ccco3)nc3ccccn23)o1 | IC50 | 57.5 µM |
| O=C(CN1CCN(S(=O)(=O)c2ccc(Cl)cc2)CC1)Nc1ccc2c(c1)OCCO2 | IC50 | 1.31 µM |

### Prompt Any idea what IC50 was measured for Cc1ccc(C(CC(=O)NCc2ccco2)c2ccccc2)c(O)c1 (stereo not drawn) ?
### Response 30 µM

### Prompt Return reported IC50; argument: NC(=S)N=Nc1c(O)cc(O)c2[nH]c(=O)ccc12
### Response 37.2 µM

---

Overview of recorded pIC50 for various molecules
# Target Or Test System: Protein Tat (Human immunodeficiency virus type 1 group M subtype B (isolate HXB2))
# Experimental Details: inhibitors of Tat binding to TAR RNA, dose response, counter-screen for Vif-APOBEC3G degradation inhibitor project, biochemical, fluorescence polarization, FAM-labeled TAR RNA (AID 1117361)
Please treat pIC50 as minus the base-10 logarithm of the molar concentration.

| Smiles Entry | pIC50 |
| --- | --- |
| O=[N+]([O-])c1cc(/C=N\Nc2nccs2)ccc1O | 5.25 |
| COC(=O)Cn1c(CCC(=O)O)ccc1-c1ccccc1 | 4.37 |
| CC(C)NC[C@@H](O)c1ccc(O)c(O)c1 | 5.28 |
| CNc1ccccc(-c2ccc3cc4c(cc3n2)OCO4)c1=O | 5.65 |
| COc1cccc(-n2c(Cc3cc(=O)[nH]c(=O)[nH]3)nnc2SCC(=O)NC2CCCC2)c1 | 4.99 |

Now, please, on to the next molecule.
### Prompt Reported pIC50, molecule Cc1cccc(C)c1NC(=O)COC(=O)c1cc(-c2cccnc2)nc2ccccc12 : ____
### Response 4.07

---

# Target Or Test System: Protein Tat (Human immunodeficiency virus type 1 group M subtype B (isolate HXB2)) (UniProt P04608)
# Experimental Details: inhibitors of Tat binding to TAR RNA, dose response, counter-screen for Vif-APOBEC3G degradation inhibitor project, biochemical, fluorescence polarization, FAM-labeled TAR RNA (AID 1117361)
Known IC50 of a selection of compounds

These recorded examples may help you get a feel for the data.
| Compound | IC50 |
| --- | --- |
| CCOC(=O)C1=C(N)n2c(s/c(=C\c3ccco3)c2=O)=C(C(=O)OC(C)C)C1c1ccco1 (stereo unspecified) | 3.45 µM |
| CC1(c2ccc3noc(-c4ccccc4)c3c2)OCCO1 | 2.87 µM |
| CCc1ccccc1NC(=O)c1cccc(NC(=O)/C=C/c2ccco2)c1 | 26.6 µM |
| O=c1ccc2c(-c3ccccc3S(=O)(=O)O)c3ccc(O)c(O)c3oc-2c1O | 4.84 µM |
| c1coc(-c2nc(-c3ccco3)c(-c3ccco3)nc2-c2ccco2)c1 | 2.19 µM |

// switching to the query compound
### Prompt Please give the measured IC50 for this compound: CCN(CC)c1ccc2c(c1)CCCN2
### Response 2.89 µM

---

# Target Or Test System: Protein Tat (Human immunodeficiency virus type 1 group M subtype B (isolate HXB2)) (UniProt P04608)
# Experimental Details: inhibitors of Tat binding to TAR RNA, dose response, counter-screen for Vif-APOBEC3G degradation inhibitor project, biochemical, fluorescence polarization, FAM-labeled TAR RNA (AID 1117361)
pIC50: −log10 of the molar value.
Label 0 (no) if pIC50 falls below 5; label 1 (yes) in every other case.

| Compound | Assigned Category |
| --- | --- |
| CN(C)c1ccc(N=C/C=C2/N(C)c3ccccc3C2(C)C)cc1 | 0 (no) |
| CNc1cccccc1=S | 1 (yes) |

### Prompt // inclusive: pIC50 at least 5? input: O=C(CC1C(=O)NCCN1Cc1ccc(F)cc1)NCCN1CCCc2ccccc21 (stereo unspecified)
### Response 0 (no)

### Prompt Is the recorded value of pIC50 equal to or greater than 5 for this compound? O=C1c2ccccc2C(=O)N1/N=C/c1ccc(O)c(O)c1O
### Response 0 (no)

### Prompt Decide: pIC50 of Cn1c(O)c(/C=N/NC(=O)c2ccncc2)c(=O)[nH]c1=S >= 5?
### Response 0 (no)
